Entries and their inhibition at 0.05 µM values follow.
Biological target: Kit (Homo sapiens)
Sequence (P10721 26-976): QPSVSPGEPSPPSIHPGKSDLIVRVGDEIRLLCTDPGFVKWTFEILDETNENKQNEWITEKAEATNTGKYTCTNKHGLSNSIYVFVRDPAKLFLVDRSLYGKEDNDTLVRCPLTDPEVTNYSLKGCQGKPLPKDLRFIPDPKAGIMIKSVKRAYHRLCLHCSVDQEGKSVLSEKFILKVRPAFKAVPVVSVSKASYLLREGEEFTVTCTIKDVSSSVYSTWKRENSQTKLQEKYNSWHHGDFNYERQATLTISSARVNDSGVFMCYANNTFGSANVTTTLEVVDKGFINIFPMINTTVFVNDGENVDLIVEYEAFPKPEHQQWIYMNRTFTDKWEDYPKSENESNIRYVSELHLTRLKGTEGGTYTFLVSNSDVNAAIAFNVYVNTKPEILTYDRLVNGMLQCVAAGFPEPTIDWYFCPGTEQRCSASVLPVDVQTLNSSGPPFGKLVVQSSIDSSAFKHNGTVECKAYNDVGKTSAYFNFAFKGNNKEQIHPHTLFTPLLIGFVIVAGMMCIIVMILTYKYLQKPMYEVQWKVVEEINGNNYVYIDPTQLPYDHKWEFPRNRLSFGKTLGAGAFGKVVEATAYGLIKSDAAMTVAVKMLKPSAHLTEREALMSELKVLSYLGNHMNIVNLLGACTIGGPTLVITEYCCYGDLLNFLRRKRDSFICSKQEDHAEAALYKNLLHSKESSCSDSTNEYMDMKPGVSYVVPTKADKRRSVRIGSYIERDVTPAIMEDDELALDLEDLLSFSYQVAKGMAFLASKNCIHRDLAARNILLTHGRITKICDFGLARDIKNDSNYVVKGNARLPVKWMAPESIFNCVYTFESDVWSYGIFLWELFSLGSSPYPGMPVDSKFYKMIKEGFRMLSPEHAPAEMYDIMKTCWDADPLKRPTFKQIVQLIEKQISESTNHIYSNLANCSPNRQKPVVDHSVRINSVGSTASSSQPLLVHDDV
Assay: Z'-Lyte biochemical kinase assay (SelectScreen), Kit
Details: at 50 nM, in duplicate
Recorded endpoint: inhibition at 0.05 µM (%)

> print(dat)
                                smiles.data      recorded.endpoint  numeric.value
1  COc1cc2nccc(Oc3cccc(C(=O)NCCc4ccccc4)c3)c2cc1OC  inhibition at 0.05 µM             32
2  COc1ccccc1CNC(=O)c1ccc(F)c(Oc2ccnc3cc(OC)c(OC)cc23)c1  inhibition at 0.05 µM             13
3  O=C(NCc1cccc(F)c1)c1ccc(F)c(Oc2ccnc3ccccc23)c1  inhibition at 0.05 µM             27
4  COc1cc2nccc(Oc3cccc(C(=O)NCc4cncc(F)c4)c3)c2cc1OC  inhibition at 0.05 µM             17
5  COc1ccc2c(Oc3cccc(C(=O)NCc4cccc(F)c4)c3C)ccnc2c1  inhibition at 0.05 µM              4

====

Biological target: PDGFRA (Homo sapiens, UniProt P16234)
Sequence (P16234 24-1089): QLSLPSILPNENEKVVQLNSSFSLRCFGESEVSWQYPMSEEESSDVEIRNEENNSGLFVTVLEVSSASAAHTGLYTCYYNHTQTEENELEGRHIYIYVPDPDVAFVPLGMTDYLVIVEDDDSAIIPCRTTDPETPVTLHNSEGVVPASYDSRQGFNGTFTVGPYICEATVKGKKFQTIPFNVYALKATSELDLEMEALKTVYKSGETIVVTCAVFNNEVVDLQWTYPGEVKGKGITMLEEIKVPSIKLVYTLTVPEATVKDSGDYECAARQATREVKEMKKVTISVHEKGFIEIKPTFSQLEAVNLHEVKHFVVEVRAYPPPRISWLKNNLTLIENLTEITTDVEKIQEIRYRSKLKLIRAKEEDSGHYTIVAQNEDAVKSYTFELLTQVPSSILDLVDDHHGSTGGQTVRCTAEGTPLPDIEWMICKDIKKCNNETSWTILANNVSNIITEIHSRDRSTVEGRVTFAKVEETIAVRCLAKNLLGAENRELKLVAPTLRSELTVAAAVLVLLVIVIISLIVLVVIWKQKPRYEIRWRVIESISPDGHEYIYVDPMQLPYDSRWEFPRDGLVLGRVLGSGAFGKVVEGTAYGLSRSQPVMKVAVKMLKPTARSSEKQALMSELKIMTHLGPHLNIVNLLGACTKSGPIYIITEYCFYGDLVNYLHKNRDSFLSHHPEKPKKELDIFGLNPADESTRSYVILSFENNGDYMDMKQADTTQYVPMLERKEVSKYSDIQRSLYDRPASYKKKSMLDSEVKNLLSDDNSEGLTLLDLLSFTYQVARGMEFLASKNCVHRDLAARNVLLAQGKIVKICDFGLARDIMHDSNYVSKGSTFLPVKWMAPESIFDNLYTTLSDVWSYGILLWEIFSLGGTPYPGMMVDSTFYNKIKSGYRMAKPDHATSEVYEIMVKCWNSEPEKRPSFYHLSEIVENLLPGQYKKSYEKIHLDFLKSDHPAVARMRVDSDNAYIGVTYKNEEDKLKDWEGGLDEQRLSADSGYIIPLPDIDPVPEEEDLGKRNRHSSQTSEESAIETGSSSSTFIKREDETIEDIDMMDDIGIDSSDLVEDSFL
Assay: Z'-Lyte biochemical kinase assay (SelectScreen), PDGFRA
Settings: at 50 nM, in duplicate
Decision: inhibition at 0.05 µM >= 10% yields MET, all other cases yield NOT MET.

> print(dat)
                                    molecule  assigned.label
 1  COc1cc2nccc(Oc3cc(F)cc(C(=O)N[C@H](C)C4CCCCC4)c3)c2cc1OC [compound 90]             MET
 2  Cc1c(Oc2ccnc3ccccc23)cccc1C(=O)NCc1ccc(C#N)cc1 [compound 30]         NOT MET
 3  CN(C)c1ccc2c(Oc3cc(C(=O)NCc4ccncc4)ccc3F)ccnc2c1 [compound 143]             MET
 4  COc1ccccc1CNC(=O)c1cccc(Oc2ccnc3cc(OC)c(OC)cc23)c1 [compound 26]             MET
 5  COc1cc2nccc(Oc3cccc(C(=O)NCc4ccccc4)c3)c2cc1OC [compound 84]             MET
 6  CNc1ccc2c(Oc3cccc(C(=O)NCc4ccncc4)c3C)ccnc2c1 [compound 148]         NOT MET
 7  COc1ccccc1CNC(=O)c1cccc(Oc2ccnc3ccccc23)c1 [compound 7]             MET
 8  CNc1ccc2c(Oc3cccc(C(=O)NCc4cccc(F)c4)c3C)ccnc2c1 [compound 151]         NOT MET
 9  CNc1ccc2c(Oc3cc(C(=O)NCc4ccncc4)ccc3F)ccnc2c1 [compound 142]             MET
10  COc1cc2nccc(Oc3cc(C(=O)N[C@H](C)C4CCCCC4)ccc3F)c2cc1OC [compound 93]             MET
11  O=C(NCC1CCCCC1)c1cccc(Oc2ccnc3ccccc23)c1 [compound 3]             MET
12  O=C(NCc1cccc(F)c1)c1ccc(F)c(Oc2ccnc3ccccc23)c1 [compound 101]             MET
13  Cc1c(Oc2ccnc3cc(N4CCC4)ccc23)cccc1C(=O)NCc1ccncc1 [compound 150]         NOT MET
14  O=C(NCc1ccc(F)cc1)c1cccc(Oc2ccnc3ccccc23)c1 [compound 16]             MET
15  O=C(NCc1cccc(F)c1)c1cccc(Oc2ccnc3ccccc23)c1 [compound 10]             MET
16  COc1cc2nccc(Oc3cccc(C(=O)NCC4CCCCC4)c3)c2cc1OC [compound 27]             MET
17  COc1ccc2c(Oc3cccc(C(=O)NCc4ccncc4)c3C)ccnc2c1 [Compounds 32]         NOT MET
18  COc1ccccc1CNC(=O)c1cc(F)cc(Oc2ccnc3cc(OC)c(OC)cc23)c1 [compound 89]             MET
19  COc1ccccc1CNC(=O)c1ccc(F)c(Oc2ccnc3cc(OC)c(OC)cc23)c1 [compound 92]             MET
20  O=C(NCc1cncc(F)c1)c1cccc(Oc2ccnc3ccccc23)c1 [compound 17]             MET
21  Cc1c(Oc2ccnc3cc(Cl)ccc23)cccc1C(=O)NCc1ccncc1 [Compounds 108]             MET
